- target-entity: GST-Co-NF-kB (Capsaspora owczarzaki, UniProt F1ARL5 200-546)
- Sequence: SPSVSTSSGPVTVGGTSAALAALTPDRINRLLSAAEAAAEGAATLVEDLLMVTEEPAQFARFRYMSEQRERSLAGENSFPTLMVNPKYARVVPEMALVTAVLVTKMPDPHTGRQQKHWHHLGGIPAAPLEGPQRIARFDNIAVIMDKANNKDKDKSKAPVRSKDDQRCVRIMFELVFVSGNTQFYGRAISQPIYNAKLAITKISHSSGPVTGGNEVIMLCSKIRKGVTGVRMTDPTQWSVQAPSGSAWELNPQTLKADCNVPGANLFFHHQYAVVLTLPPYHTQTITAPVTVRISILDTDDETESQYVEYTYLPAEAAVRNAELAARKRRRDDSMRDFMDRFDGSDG
- assay-overview: protein-binding microarray (PBM); PBM: ~300 nM protein, 6 mM HEPES pH 7.8, 80 mM KCl, 0.5 mM EDTA, 0.5 mM EGTA, 6% glycerol, 35 ng/ul poly-dIdC, 1% milk, 1 h, room temperature; high values mean tight binding
- study-conditions: dsDNA, one strand shown
result-type: binding signal (z-score)
Numbers only here, please. The scale is z-score.

For the sequence "CCGATTAACATCAGGGGGAAACATGATGTTAATCGGGTCTTGATTCGCTTGACGCTGCTG" , what binding signal is on record? 10.9

"CCGATTAACATCAATATAACCCCTGATGTTAATCGGGTCTTGATTCGCTTGACGCTGCTG" , same question. 2.11

"CCGATTAACATCACGGGAATTTCTGATGTTAATCGGGTCTTGATTCGCTTGACGCTGCTG" , same question. 5.53

"CCGATTAACATCACCTTGGGAAATGATGTTAATCGGGTCTTGATTCGCTTGACGCTGCTG" , same question. 2.79

"CCGATTAACATCAAAAAGCCCCGTGATGTTAATCGGGTCTTGATTCGCTTGACGCTGCTG" , same question. 1.43

###

For each record, write down the corresponding binding signal.
- target-entity: GST-Dm-Relish (Drosophila melanogaster, UniProt Q94527 99-473)
- Sequence: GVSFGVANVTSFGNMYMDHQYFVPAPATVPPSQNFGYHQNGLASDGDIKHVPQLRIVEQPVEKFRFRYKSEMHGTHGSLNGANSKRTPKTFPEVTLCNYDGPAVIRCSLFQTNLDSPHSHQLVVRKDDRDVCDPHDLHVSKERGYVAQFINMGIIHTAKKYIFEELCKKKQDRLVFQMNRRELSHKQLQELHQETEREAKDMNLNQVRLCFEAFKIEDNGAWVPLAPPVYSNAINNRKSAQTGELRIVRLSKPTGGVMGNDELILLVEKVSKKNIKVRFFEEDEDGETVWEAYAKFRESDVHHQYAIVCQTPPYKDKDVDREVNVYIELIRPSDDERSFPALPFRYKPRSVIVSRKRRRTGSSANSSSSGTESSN
- assay-overview: protein-binding microarray (PBM); PBM: ~300 nM protein, 6 mM HEPES pH 7.8, 80 mM KCl, 0.5 mM EDTA, 0.5 mM EGTA, 6% glycerol, 35 ng/ul poly-dIdC, 1% milk, 1 h, room temperature; high values mean tight binding
- study-conditions: dsDNA, one strand shown
Numbers only here, please. The scale is z-score.

For the sequence "CCGATTAACATCAGGAAATTTTATGATGTTAATCGGGTCTTGATTCGCTTGACGCTGCTG" , what binding signal is on record? 1.46

"CCGATTAACATCAAGCGTTCCCCTGATGTTAATCGGGTCTTGATTCGCTTGACGCTGCTG" , same question. 3.82

"CCGATTAACATCACGGGGGATTATGATGTTAATCGGGTCTTGATTCGCTTGACGCTGCTG" , same question. 6.41

"CCGATTAACATCACGTAAAATCCTGATGTTAATCGGGTCTTGATTCGCTTGACGCTGCTG" , same question. 1.05

"CCGATTAACATCAAGAAAACCCCTGATGTTAATCGGGTCTTGATTCGCTTGACGCTGCTG" , same question. 7.76

"CCGATTAACATCACGGGGATTCCTGATGTTAATCGGGTCTTGATTCGCTTGACGCTGCTG" , same question. 10.6

"CCGATTAACATCACATACCCCCCTGATGTTAATCGGGTCTTGATTCGCTTGACGCTGCTG" , same question. 3.92

"CCGATTAACATCACGGAAAATACTGATGTTAATCGGGTCTTGATTCGCTTGACGCTGCTG" , same question. 1.21

"CCGATTAACATCAGGGAAAGAAATGATGTTAATCGGGTCTTGATTCGCTTGACGCTGCTG" , same question. 1.72

###

- target-entity: GST-Dm-Relish (Drosophila melanogaster, UniProt Q94527 99-473)
- Sequence: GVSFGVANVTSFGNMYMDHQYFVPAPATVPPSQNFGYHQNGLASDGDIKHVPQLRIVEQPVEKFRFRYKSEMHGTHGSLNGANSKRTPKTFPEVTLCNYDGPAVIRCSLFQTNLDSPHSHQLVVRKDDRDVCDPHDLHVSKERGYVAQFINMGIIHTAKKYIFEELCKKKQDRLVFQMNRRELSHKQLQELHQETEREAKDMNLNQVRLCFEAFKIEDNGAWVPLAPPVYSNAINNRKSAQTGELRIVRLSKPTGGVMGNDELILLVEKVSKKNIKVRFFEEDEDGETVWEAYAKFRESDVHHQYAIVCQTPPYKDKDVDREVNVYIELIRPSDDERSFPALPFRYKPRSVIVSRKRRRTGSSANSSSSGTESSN
- assay-overview: protein-binding microarray (PBM); PBM: ~300 nM protein, 6 mM HEPES pH 7.8, 80 mM KCl, 0.5 mM EDTA, 0.5 mM EGTA, 6% glycerol, 35 ng/ul poly-dIdC, 1% milk, 1 h, room temperature; Ap Aiptasia and Nv Nematostella (sea anemones) / Co Capsaspora / Aq Amphimedon (sponge) / Dm Drosophila / Hu human; RHD is the Rel homology domain; high values mean tight binding
- study-conditions: dsDNA, one strand shown
Respond with label 1 for binding signal values of 3 z-score and above, label 0 for values below.

Does the sequence "CCGATTAACATCAGAATTTCCCCTGATGTTAATCGGGTCTTGATTCGCTTGACGCTGCTG" have recorded binding signal that is 3 z-score or more? label 1

"CCGATTAACATCAGGACTTCCCATGATGTTAATCGGGTCTTGATTCGCTTGACGCTGCTG" , same question. label 1

"CCGATTAACATCACGTGATTTCCTGATGTTAATCGGGTCTTGATTCGCTTGACGCTGCTG" , same question. label 1

"CCGATTAACATCAATTCCCCCCATGATGTTAATCGGGTCTTGATTCGCTTGACGCTGCTG" , same question. label 1

"CCGATTAACATCAATTCCCACCCTGATGTTAATCGGGTCTTGATTCGCTTGACGCTGCTG" , same question. label 0

"CCGATTAACATCAGGGGGGGACATGATGTTAATCGGGTCTTGATTCGCTTGACGCTGCTG" , same question. label 1

"CCGATTAACATCAAGGGATCCCCTGATGTTAATCGGGTCTTGATTCGCTTGACGCTGCTG" , same question. label 1

"CCGATTAACATCAAAAAATCCCGTGATGTTAATCGGGTCTTGATTCGCTTGACGCTGCTG" , same question. label 1

"CCGATTAACATCATCAGGGGAAATGATGTTAATCGGGTCTTGATTCGCTTGACGCTGCTG" , same question. label 0

"CCGATTAACATCAAGGGGGAGGGTGATGTTAATCGGGTCTTGATTCGCTTGACGCTGCTG" , same question. label 1

"CCGATTAACATCAGGGAGTGCCCTGATGTTAATCGGGTCTTGATTCGCTTGACGCTGCTG" , same question. label 1

"CCGATTAACATCAATATCCCCCCTGATGTTAATCGGGTCTTGATTCGCTTGACGCTGCTG" , same question. label 1

"CCGATTAACATCAGGTTTTTCCATGATGTTAATCGGGTCTTGATTCGCTTGACGCTGCTG" , same question. label 0

"CCGATTAACATCAAAATATTCCCTGATGTTAATCGGGTCTTGATTCGCTTGACGCTGCTG" , same question. label 1

"CCGATTAACATCAAGGGAATTTATGATGTTAATCGGGTCTTGATTCGCTTGACGCTGCTG" , same question. label 1

"CCGATTAACATCACACATTTCCCTGATGTTAATCGGGTCTTGATTCGCTTGACGCTGCTG" , same question. label 0

"CCGATTAACATCAGGGGAGAAACTGATGTTAATCGGGTCTTGATTCGCTTGACGCTGCTG" , same question. label 1

"CCGATTAACATCACATTGTCCCCTGATGTTAATCGGGTCTTGATTCGCTTGACGCTGCTG" , same question. label 0

"CCGATTAACATCAGGGGAGTTAATGATGTTAATCGGGTCTTGATTCGCTTGACGCTGCTG" , same question. label 1

"CCGATTAACATCATAAATTCCCATGATGTTAATCGGGTCTTGATTCGCTTGACGCTGCTG" , same question. label 1

"CCGATTAACATCAGGGAAAGACCTGATGTTAATCGGGTCTTGATTCGCTTGACGCTGCTG" , same question. label 1

"CCGATTAACATCAGGATTTTACATGATGTTAATCGGGTCTTGATTCGCTTGACGCTGCTG" , same question. label 1

"CCGATTAACATCAAGCACCCCCTTGATGTTAATCGGGTCTTGATTCGCTTGACGCTGCTG" , same question. label 0

"CCGATTAACATCAATTCCCAAGGTGATGTTAATCGGGTCTTGATTCGCTTGACGCTGCTG" , same question. label 0

"CCGATTAACATCAAGGGGGGACTTGATGTTAATCGGGTCTTGATTCGCTTGACGCTGCTG" , same question. label 1

"CCGATTAACATCAGGGGAAGGACTGATGTTAATCGGGTCTTGATTCGCTTGACGCTGCTG" , same question. label 1

"CCGATTAACATCAAGATTTTCCCTGATGTTAATCGGGTCTTGATTCGCTTGACGCTGCTG" , same question. label 0

"CCGATTAACATCAAAACACTCCCTGATGTTAATCGGGTCTTGATTCGCTTGACGCTGCTG" , same question. label 0

"CCGATTAACATCAGGGGGTGGGATGATGTTAATCGGGTCTTGATTCGCTTGACGCTGCTG" , same question. label 1

"CCGATTAACATCACGGAAGTCCCTGATGTTAATCGGGTCTTGATTCGCTTGACGCTGCTG" , same question. label 1

"CCGATTAACATCACGTCCCCCCCTGATGTTAATCGGGTCTTGATTCGCTTGACGCTGCTG" , same question. label 1

"CCGATTAACATCAAAATGTCCCCTGATGTTAATCGGGTCTTGATTCGCTTGACGCTGCTG" , same question. label 1

"CCGATTAACATCAGCAACCCCCCTGATGTTAATCGGGTCTTGATTCGCTTGACGCTGCTG" , same question. label 1

"CCGATTAACATCAGGTGATCACCTGATGTTAATCGGGTCTTGATTCGCTTGACGCTGCTG" , same question. label 0

"CCGATTAACATCACGGACTTCCCTGATGTTAATCGGGTCTTGATTCGCTTGACGCTGCTG" , same question. label 1
